Overview of recorded Population Mitotic Cells (%) for various compounds
test system: Fibroblast; assay: Multiplex assay against human fibroblast; format: toxicity, cell-based; conditions: 12 h, 1 µM, compound concentration 1 uM, replicate 2

Examples from the recorded data:
COMPOUND: CN(C)c1ccnc2sc3c(=O)n(N4CCCCCC4)cnc3c12
EXPERIMENTAL_READOUT: Population Mitotic Cells (%)
ENDPOINT_RESULT: 70%

COMPOUND: CNC[C@H](O)c1ccc(O)c(O)c1 [EPINEPHRINE]
EXPERIMENTAL_READOUT: Population Mitotic Cells (%)
ENDPOINT_RESULT: 60%

COMPOUND: CC(=O)NCCc1c(Cc2ccccc2)[nH]c2ccccc12
EXPERIMENTAL_READOUT: Population Mitotic Cells (%)
ENDPOINT_RESULT: 59%

COMPOUND: C[C@H]1[C@H]2CC[C@H]3[C@@H]4CC=C5C[C@@H](N(C)C)CC[C@]5(C)[C@H]4CC[C@]23CN1C
EXPERIMENTAL_READOUT: Population Mitotic Cells (%)
ENDPOINT_RESULT: 70%

COMPOUND: O=C(NCCO)c1cccc(-c2cc(Nc3ccc(OC(F)(F)F)cc3)ncn2)c1
EXPERIMENTAL_READOUT: Population Mitotic Cells (%)
ENDPOINT_RESULT: 61%

Let's switch to this compound now.
query: Fill in the blank: the reported Population Mitotic Cells (%) of `N#Cc1c(N)nc(SCc2csc(-c3ccc(Cl)cc3)n2)c(C#N)c1-c1ccc(OCCO)cc1` is ____.
result: 72%

---

test system: Fibroblast; test: Multiplex assay against human fibroblast; format: toxicity, cell-based; settings: 48 h, 1 µM, compound concentration 1 uM, replicate 1
EXPERIMENTAL_READOUT: Population Mitochondria Different-Phenotype (%)
A number alone suffices; assume %.

Examples from the recorded data:
MOLECULE: C[C@@H]1C[C@H]2[C@@H]3CCC4=CC(=O)C=C[C@]4(C)[C@@]3(F)[C@@H](O)C[C@]2(C)[C@@]1(O)C(=O)CO [DEXAMETHASONE]
SYSTEM_UNDER_TEST: Fibroblast
UNIT_SYMBOL: %
ENDPOINT_RESULT: 4
//
MOLECULE: C[C@H](NC(=O)c1c(C(F)F)nn(C)c1Oc1cccc(C(F)(F)F)c1)c1ccc(C(=O)O)cc1 [PALUPIPRANT]
SYSTEM_UNDER_TEST: Fibroblast
UNIT_SYMBOL: %
ENDPOINT_RESULT: 4

Let's switch to this molecule now.
query: Fill in the blank: the reported Population Mitochondria Different-Phenotype (%) of C[C@H]1[C@H]2CC[C@H]3[C@@H]4CC=C5C[C@@H](N(C)C)CC[C@]5(C)[C@H]4CC[C@]23CN1C [CONESSINE] is ____.
result: 3

---

system: Fibroblast; test: Multiplex assay against human fibroblast; assay type: toxicity, cell-based; conditions: 12 h, 10 µM, compound concentration 10 uM, replicate 2
Classification field: yes (1) = Population Membrane Permeable-Phenotype (%) at or over 10%; no (0) = Population Membrane Permeable-Phenotype (%) under 10%.

# count of solved cases: 3
MOLECULE: CNC[C@H](O)c1ccc(O)c(O)c1 [EPINEPHRINE]
CLASS_LABEL: yes (1)

MOLECULE: O=S(=O)(c1ccccc1)c1cnc2c(N3CCNCC3)cccc2c1 [INTEPIRDINE]
CLASS_LABEL: no (0)

MOLECULE: CC1(COc2ccc3c(c2)ncn3-c2ccc3cccc(N4CCC(N)CC4)c3n2)COC1
CLASS_LABEL: no (0)

query: Could you verify whether the entry `N#Cc1c(N)nc(SCc2csc(-c3ccc(Cl)cc3)n2)c(C#N)c1-c1ccc(OCCO)cc1` shows Population Membrane Permeable-Phenotype (%) of no less than 10%?
result: yes (1)

query: Could you verify whether the entry `O=C(O)Cc1ccccc1Nc1c(Cl)cccc1Cl` shows Population Membrane Permeable-Phenotype (%) of no less than 10%?
result: yes (1)

query: Could you verify whether the entry `CCCn1c(=O)c2[nH]c(C3CCCC3)nc2n(CCC)c1=O` shows Population Membrane Permeable-Phenotype (%) of no less than 10%?
result: yes (1)

query: Could you verify whether the entry `CN(C)CCCc1cc(C(=O)Nc2ccc(-c3ccncc3)cc2)ccc1O.Cl.Cl` shows Population Membrane Permeable-Phenotype (%) of no less than 10%?
result: no (0)

query: Could you verify whether the entry `Cc1ccc(/C(=C\CN2CCCC2)c2ccccn2)cc1` shows Population Membrane Permeable-Phenotype (%) of no less than 10%?
result: no (0)

query: Could you verify whether the entry `COc1c(C)cc(NC(=O)c2nn(Cc3ccc(F)cc3)c3c2CN(C(=O)c2ccc[nH]2)C[C@]3(C)C(N)=O)cc1C` shows Population Membrane Permeable-Phenotype (%) of no less than 10%?
result: no (0)

query: Could you verify whether the entry `C[C@H](NC(=O)c1c(C(F)F)nn(C)c1Oc1cccc(C(F)(F)F)c1)c1ccc(C(=O)O)cc1` shows Population Membrane Permeable-Phenotype (%) of no less than 10%?
result: yes (1)

---

Overview of recorded Total Cell Count for various compounds
system: HEK-293T; assay: Multiplex assay against HEK293T; format: toxicity, cell-based; details: human, 12 h, 1 µM, compound concentration 1 uM, replicate 1
Give the figure only, with no unit attached.

Examples from the recorded data:
COMPOUND: CSc1ccccc1N1CCN(CCCCCC(=O)NC2CCCc3ccccc32)CC1.Cl (stereo unspecified)
SYSTEM_UNDER_TEST: HEK-293T
Total Cell Count: 391

COMPOUND: CC(=O)NCCc1c(Cc2ccccc2)[nH]c2ccccc12
SYSTEM_UNDER_TEST: HEK-293T
Total Cell Count: 412

COMPOUND: CN1CCN2c3ncccc3Cc3ccccc3C2C1 (stereo unspecified)
SYSTEM_UNDER_TEST: HEK-293T
Total Cell Count: 402

COMPOUND: O=S(=O)(c1ccccc1)c1cnc2c(N3CCNCC3)cccc2c1 [INTEPIRDINE]
SYSTEM_UNDER_TEST: HEK-293T
Total Cell Count: 403

COMPOUND: C[C@H]1[C@H]2CC[C@H]3[C@@H]4CC=C5C[C@@H](N(C)C)CC[C@]5(C)[C@H]4CC[C@]23CN1C
SYSTEM_UNDER_TEST: HEK-293T
Total Cell Count: 400

Let's switch to this compound now.
query: Fill in the blank: the reported Total Cell Count of `N[C@@]1(C(=O)O)CO[C@H]2[C@H](C(=O)O)[C@H]21` is ____.
result: 396

---

test system: Fibroblast; assay: Multiplex assay against human fibroblast; format: toxicity, cell-based; conditions: 48 h, 1 µM, compound concentration 1 uM, replicate 1
Overview of recorded Population Tubulin-Different-Phenotype (%) for various compounds
A number alone suffices; assume %.

Examples from the recorded data:
COMPOUND: CCOc1c2c(c(OCC)c3ncccc13)CN(c1ccc(CS(=O)(=O)NC(=O)Cc3ccccc3OC)cc1C)C2=O
ENDPOINT_RESULT: 26

COMPOUND: CN(C)c1ccnc2sc3c(=O)n(N4CCCCCC4)cnc3c12
ENDPOINT_RESULT: 30

COMPOUND: CC(=O)NCCc1c(Cc2ccccc2)[nH]c2ccccc12
ENDPOINT_RESULT: 24

query: Fill in the blank: the reported Population Tubulin-Different-Phenotype (%) of `O=C(NCCO)c1cccc(-c2cc(Nc3ccc(OC(F)(F)F)cc3)ncn2)c1` is ____.
result: 28

query: Fill in the blank: the reported Population Tubulin-Different-Phenotype (%) of Cc1ccc(C(C)(O)c2nc3ccccc3s2)c(C)c1 (centres undefined) is ____.
result: 16

---

system: HEK-293T; assay: Multiplex assay against HEK293T; format: toxicity, cell-based; settings: human, 48 h, 10 µM, compound concentration 10 uM, replicate 1
Overview of recorded Population Apoptotic (%) for various compounds
A number alone suffices; assume %.

Examples from the recorded data:
COMPOUND: CSCC[C@H](NC=O)C(=O)N[C@@H](CC(C)C)C(=O)N[C@@H](Cc1ccccc1)C(=O)O
SYSTEM_UNDER_TEST: HEK-293T
Population Apoptotic (%): 28

COMPOUND: C[C@H](NC(=O)c1c(C(F)F)nn(C)c1Oc1cccc(C(F)(F)F)c1)c1ccc(C(=O)O)cc1
SYSTEM_UNDER_TEST: HEK-293T
Population Apoptotic (%): 29

COMPOUND: COc1cc(NC(=O)CCN2CCC(OC(=O)Nc3ccccc3-c3ccccc3)CC2)c(Cl)cc1CNC[C@H](O)c1ccc(O)c2[nH]c(=O)ccc12
SYSTEM_UNDER_TEST: HEK-293T
Population Apoptotic (%): 100

COMPOUND: c1cc(OCCCN2CCCCC2)ccc1CN1CCCCC1
SYSTEM_UNDER_TEST: HEK-293T
Population Apoptotic (%): 34

COMPOUND: CCOc1c2c(c(OCC)c3ncccc13)CN(c1ccc(CS(=O)(=O)NC(=O)Cc3ccccc3OC)cc1C)C2=O
SYSTEM_UNDER_TEST: HEK-293T
Population Apoptotic (%): 41

COMPOUND: CC1(COc2ccc3c(c2)ncn3-c2ccc3cccc(N4CCC(N)CC4)c3n2)COC1
SYSTEM_UNDER_TEST: HEK-293T
Population Apoptotic (%): 86

COMPOUND: Cc1ccc(F)cc1C(=O)Nc1ccc(C(=O)N2Cc3cccn3Cc3ccccc32)c(Cl)c1
SYSTEM_UNDER_TEST: HEK-293T
Population Apoptotic (%): 43

COMPOUND: Cl.Clc1ccc2nsnc2c1NC1=NCCN1 [TIZANIDINE HYDROCHLORIDE]
SYSTEM_UNDER_TEST: HEK-293T
Population Apoptotic (%): 24

COMPOUND: CSc1ccccc1N1CCN(CCCCCC(=O)NC2CCCc3ccccc32)CC1.Cl (stereo not given)
SYSTEM_UNDER_TEST: HEK-293T
Population Apoptotic (%): 76

COMPOUND: N[C@@]1(C(=O)O)CO[C@H]2[C@H](C(=O)O)[C@H]21
SYSTEM_UNDER_TEST: HEK-293T
Population Apoptotic (%): 24

query: Fill in the blank: the reported Population Apoptotic (%) of `O=C1COc2nccc(-c3ccccc3F)c2CN1Cc1cc(C(F)(F)F)cc(C(F)(F)F)c1` is ____.
result: 44

query: Fill in the blank: the reported Population Apoptotic (%) of CN1CCN2c3ncccc3Cc3ccccc3C2C1 (stereo not given) is ____.
result: 31

query: Fill in the blank: the reported Population Apoptotic (%) of COc1ccc2c(c1)C(C(=O)N(Cc1ccc(N(C)C)cc1)c1ccc(C(C)C)cc1)CCC2.Cl (stereo not given) is ____.
result: 59

query: Fill in the blank: the reported Population Apoptotic (%) of `O=C(NCCO)c1cccc(-c2cc(Nc3ccc(OC(F)(F)F)cc3)ncn2)c1` is ____.
result: 41

query: Fill in the blank: the reported Population Apoptotic (%) of `CN(C)CCCc1cc(C(=O)Nc2ccc(-c3ccncc3)cc2)ccc1O.Cl.Cl` is ____.
result: 29
